- ASSAYED SYSTEM: recombinant H1-HA (D18-I530), A/California/06/2009 (H1N1)pdm09 (Influenza A virus A/California/06/2009 …, UniProt C3W5S1, strain)
- ASSAY TEXT: SPR
- EXPERIMENTAL SETUP: both partners purified
Would you kindly list koff for each of these binders?
Numbers only, in s⁻¹.

Some entries whose results are on file:
* R1a-F4 (VHH, source: E. coli WK6 periplasm, purified (Talon IMAC, Superdex 75 SEC)) VHH: QVQLVESGGGLVQPGGSLRLSCAASGSISRIVTMGWYRQGPGKERELVAVIGNYGNTNYADSVKGRFTVSRDNAKDTAYLQMNNLNVEDTAMYYCKCSTTTPPHEFWGQGTQVTVSS | 0.0022
* R1a-F5 (VHH, source: E. coli WK6 periplasm, purified (Talon IMAC, Superdex 75 SEC)) VHH: QLQLVESGGGLVQVGGSLRLSCAASGFPFDGYAIAWFRQAPGKEREGVSCRASDGNTYYAESLKGRLTMSTDNAKNTVYLQMNSLKPEDTAVYYCAAASWVASLWSPSEYDYWGQGTQVTVSS | 0.000414
* R2b-D9 (VHH, source: E. coli WK6 periplasm, purified (Talon IMAC, Superdex 75 SEC)) VHH: QVQLVESGGGLVQPGGSLRLSCLASGSAFSLYTMGWYRQAPGNQRELVAAITSGESTNYADSVKGRFTISRDNAKNTVYLQMNSLKPEDTAVYYCNADPLSTGWGQYSYWGQGTQVTVSS | 2.96e-05
* R1a-G6 (VHH, source: E. coli WK6 periplasm, purified (Talon IMAC, Superdex 75 SEC)) VHH: QVQLVESGGGLVQSGGSLRLSCAASGSMSRIITMGWYRQAPGMERELVAVIGNNDNTVYGDSVQGRFTVSRDNAKNTAYLQMNSLNAEDTAMYYCKISTLTPPHEYWGQGTQVTVSS | 0.000355

Could you tell me koff for each of these binders? They are listed below.
1. R1a-G5 (VHH, source: E. coli WK6 periplasm, purified (Talon IMAC, Superdex 75 SEC)) VHH: QLQLVESGGGLVQPGGSLRLSCAASGSISRIVTMGWYRQASGKERELVAVIGNYGNTNYADSVKGRFTVSRDNAKDTAYLQMNGLNVEDTAIYYCKTSTTTPPYEYWGQGTQVTVSS
2. R2a-H9 (VHH, source: E. coli WK6 periplasm, purified (Talon IMAC, Superdex 75 SEC)) VHH: QVQLVESGGGLVQPGGSLRLSCAASTNIASFYTMGWYRQTPGQQRDVVAVIGNGGNTNYADSVKGRFTISRDGAKNTAHLQMNSLKPEDTDVYYCKASGPGGVILWGQGTQVTVSS
3. R1a-C5 (VHH, source: E. coli WK6 periplasm, purified (Talon IMAC, Superdex 75 SEC)) VHH: QVQLVESGGGLVQPGGSLRLSCAASNDIFSFYTMGWYLQAIGKQREPVAVIGNGGNTNYAESVKGRFTISRDGAKNTAYLQMNSLKPEDTAVYYCMASGPGGLNVWGQGTQVTVSS
4. R2a-G8 (VHH, source: E. coli WK6 periplasm, purified (Talon IMAC, Superdex 75 SEC)) VHH: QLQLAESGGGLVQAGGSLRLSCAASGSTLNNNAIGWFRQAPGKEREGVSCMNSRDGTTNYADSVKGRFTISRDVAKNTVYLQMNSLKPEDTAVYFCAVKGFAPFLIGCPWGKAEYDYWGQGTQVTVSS

Solution:
1: 0.00504; 2: 0.000384; 3: 0.0206; 4: 0.000798
